Source of measurements: patent US11091444B2

- system_name: TRX-eAPP575-624 (Homo sapiens (Human), UniProt P05067)
- Sequence (P05067 650-699): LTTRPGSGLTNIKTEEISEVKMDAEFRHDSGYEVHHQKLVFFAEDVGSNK
- method_description: SPR (Biacore) binding to APP ectodomain fragment
- recorded_conditions: Table 1; SPR; read-out: APP binding Kd
metric_name: Kd (nM)
Answer in nM, number only, no unit symbol.

-- ask Fill in: Kd of Cc1cc(C2(c3cc(F)cc(F)c3)N=C(N)N(C)C2=O)ccc1OC(F)F (stereo not shown) is ___
-- reply 300

###

- system_name: UniProt P56817
- Sequence (P56817 46-501): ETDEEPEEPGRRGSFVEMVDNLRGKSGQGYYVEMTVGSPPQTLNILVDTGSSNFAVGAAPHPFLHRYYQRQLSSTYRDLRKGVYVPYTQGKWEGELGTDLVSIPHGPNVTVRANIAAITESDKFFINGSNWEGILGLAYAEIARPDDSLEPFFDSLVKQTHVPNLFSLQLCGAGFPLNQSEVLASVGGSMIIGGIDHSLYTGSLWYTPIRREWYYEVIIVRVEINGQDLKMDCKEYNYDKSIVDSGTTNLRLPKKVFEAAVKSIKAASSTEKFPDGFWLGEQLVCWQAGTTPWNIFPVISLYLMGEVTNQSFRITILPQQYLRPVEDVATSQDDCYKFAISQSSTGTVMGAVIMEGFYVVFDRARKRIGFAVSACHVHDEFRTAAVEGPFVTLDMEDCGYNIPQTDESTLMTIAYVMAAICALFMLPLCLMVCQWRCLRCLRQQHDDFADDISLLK
- method_description: NRG1-BACE cleavage in transfected HEK 293 cells (SEAP/lacZ)
- recorded_conditions: secondary screen; read-out: NRG1-BACD1 IC50
pIC50: −log10 of the molar value.
metric_name: pIC50

-- ask Looking for the measured pIC50 of Cc1cc(C2(c3cccc(F)c3)N=C(N)N(C)C2=O)ccc1OC(F)F (stereo not shown) , can you help?
-- reply < 6.00

###

- System: sAPP alpha
- method_description: Secondary screen: sAPP alpha
- Assay type: cell-based
- recorded_conditions: increase (↑) of ratio
metric_name: sAPP (α/β)

compound="Cc1cccc(C2(c3ccc(OC(F)F)c(C)c3)N=C(N)N(C)C2=O)c1 (stereo not drawn)" recorded_value="↑ > 100%"
compound="Cc1cc(C2(c3cc(F)cc(F)c3)N=C(N)N(C)C2=O)ccc1OC(F)F (stereo not drawn)" recorded_value=↑≈10%
compound="Cc1cc(C2(c3cccc(C(F)(F)F)c3)N=C(N)N(C)C2=O)ccc1OC(F)F (stereo not drawn)" recorded_value="↑ > 50%"
compound="Cc1cc(C2(c3cccc(Cl)c3)N=C(N)N(C)C2=O)ccc1OC(F)F (stereo not drawn)" recorded_value="↑ > 50%"
compound="Cc1cc(C2(c3cccc(F)c3)N=C(N)N(C)C2=O)ccc1OC(F)F (stereo not drawn)" recorded_value="↑ > 100%"

Let us examine a further case.
-- ask Look up sAPP (α/β) for this compound: Cc1cc(F)cc(C2(c3ccc(OC(F)F)c(C)c3)N=C(N)N(C)C2=O)c1 (stereo not drawn)
-- reply ↑≈50%
